Measured values drawn from patent US20090247533A1 for this set.

# Tested on: protein synthesis
# Method: Antimetabolism: protein synthesis inhibition
# Type: cell-based
Measurement type: Prot. (protein synthesis inhibition) IC50 (µg/mL)
Record the value in µg/mL, omitting the unit from your answer.

[
  {
    "Molecule": "COc1c(C)cc2c(c1O)[C@H]1N[C@@H](C2)[C@H](O)N2[C@H]1[C@@H]1SC[C@]3(NCCc4c3[nH]c3ccccc43)C(=O)OC[C@H]2c2c3c(c(C)c(OC(C)=O)c21)OCO3",
    "Val": 0.9
  }
]

Continue with the next molecule.
### Prompt Which Prot. (protein synthesis inhibition) IC50 reading was recorded for the molecule COc1c(C)cc2c(c1O)C1C3[C@@H]4SCC(=O)C(=O)OC[C@@H](c5c6c(c(C)c(OC(C)=O)c54)OCO6)N3[C@@H](O)[C@H](C2)N1C (some centres unmarked) ?
### Response 0.8

---

Attribute: RNAp (RNA polymerase inhibition) IC50
# Assay target: RNA polymerase
# Method: Enzyme inhibition: RNA polymerase inhibition
# Assay type: biochemical
The response must be a number in µg/mL with no trailing unit.

[
  {
    "Molecule": "COc1cc2c(cc1O)CCN[C@]21CS[C@@H]2c3c(OC(C)=O)c(C)c4c(c3[C@H](COC1=O)N1[C@@H]2[C@@H]2N[C@@H](Cc3cc(C)c(OC)c(O)c32)[C@@H]1O)OCO4",
    "Assay target": "RNA polymerase",
    "Unit symbol": "µg/mL",
    "Val": 0.05
  },
  {
    "Molecule": "COc1c(C)cc2c(c1O)[C@@H]1[C@@H]3[C@@H]4SC[C@]5(NCCc6c5[nH]c5ccccc65)C(=O)OC[C@@H](c5c6c(c(C)c(OC(C)=O)c54)OCO6)N3[C@@H](O)[C@H](C2)N1C",
    "Assay target": "RNA polymerase",
    "Unit symbol": "µg/mL",
    "Val": 0.5
  }
]

### Prompt Fill blank: measured RNAp (RNA polymerase inhibition) IC50 of the molecule COc1c(C)cc2c(c1O)C1C3[C@@H]4SCC(=O)C(=O)OC[C@@H](c5c6c(c(C)c(OC(C)=O)c54)OCO6)N3[C@@H](O)[C@H](C2)N1C (stereo partly drawn) is ____.
### Response 1.0

---

# System: CV-1 = monkey kidney cells
# Method: Cytotoxicity against CV-1 cells
# Type: cell-based
// reported CV-1 IC50 for each item listed

[
  {
    "Molecule": "COc1cc2c(cc1O)CCNC21C[S+]([O-])C2c3c(OC(C)=O)c(C)c4c(c3C(COC1=O)N1C(O)C3Cc5cc(C)c(OC)c(O)c5C(N3)C21)OCO4 (stereo not drawn) [Et 745B, Ecteinascidin 745B]",
    "Assay target": "CV-1 = monkey kidney cells",
    "Val": "25 ng/mL"
  },
  {
    "Molecule": "COc1cc2c(cc1O)CCNC21CSC2c3c(OC(C)=O)c(C)c4c(c3C(COC1=O)N1CC3Cc5cc(C)c(OC)c(O)c5C(N3)C21)OCO4 (stereo not drawn) [Et 731, Ecteinascidin 731]",
    "Assay target": "CV-1 = monkey kidney cells",
    "Val": "200 ng/mL"
  },
  {
    "Molecule": "COc1cc2c(cc1O)CCNC21CSC2c3c(OC(C)=O)c(C)c4c(c3C(COC1=O)N1C(O)C3Cc5c(Br)c(C)c(OC)c(O)c5C(C21)N3C=O)OCO4 (stereo not drawn) [N—CHO, 15-Br (18)]",
    "Assay target": "CV-1 = monkey kidney cells",
    "Val": "250 ng/mL"
  }
]

The record that follows has no CV-1 IC50 shown yet.
### Prompt Hi! What's the reported CV-1 IC50 for COc1c(C)cc2c(c1O)[C@@H]1[C@@H]3[C@@H]4SC[C@]5(NCCc6c5[nH]c5ccccc65)C(=O)OC[C@@H](c5c6c(c(C)c(OC(C)=O)c54)OCO6)N3[C@@H](O)[C@H](C2)N1C [Et 736] on CV-1 = monkey kidney cells?
### Response 2.5 ng/mL

---

# Test system: protein synthesis
# Method: Antimetabolism: protein synthesis inhibition
# Assay type: cell-based
Measurement type: Prot. (protein synthesis inhibition) IC50

Recorded Prot. (protein synthesis inhibition) IC50, per entry:
[
  {
    "Molecule": "COc1cc2c(cc1O)CCNC21CSC2c3c(OC(C)=O)c(C)c4c(c3C(COC1=O)N1CC3Cc5cc(C)c(OC)c(O)c5C(N3)C21)OCO4 (stereo not drawn) [Et 731, Ecteinascidin 731]",
    "Val": ">1 µg/mL"
  },
  {
    "Molecule": "COc1cc2c(cc1O)CCN[C@]21CS[C@@H]2c3c(OC(C)=O)c(C)c4c(c3[C@H](COC1=O)N1[C@@H]2[C@H]2c3c(cc(C)c(OC)c3O)C[C@@H]([C@@H]1O)N2C)OCO4 [Et 743]",
    "Val": ">1 µg/mL"
  }
]

# ---- query molecule ----
### Prompt Given the molecule COc1cc2c(cc1O)CCN[C@]21CS[C@@H]2c3c(OC(C)=O)c(C)c4c(c3[C@H](COC1=O)N1[C@@H]2[C@@H]2N[C@@H](Cc3cc(C)c(OC)c(O)c32)[C@@H]1O)OCO4 [Et 729] , what is its reported Prot. (protein synthesis inhibition) IC50?
### Response >1 µg/mL

---

Entries annotated with measured CV-1 IC50
# System: CV-1 = monkey kidney cells
# Method: Cytotoxicity against CV-1 cells
# Format: cell-based
Kindly provide the numeric value in ng/mL only, without the unit symbol.

### Prompt Return reported CV-1 IC50; argument: COc1cc2c(cc1O)CCN[C@]21CS[C@@H]2c3c(OC(C)=O)c(C)c4c(c3[C@H](COC1=O)N1[C@@H]2[C@@H]2N[C@@H](Cc3cc(C)c(OC)c(O)c32)[C@@H]1O)OCO4
### Response 2.5

### Prompt // same read-out, input: COc1c(C)cc2c(c1O)[C@@H]1[C@@H]3[C@@H]4SC[C@H](N)C(=O)OC[C@@H](c5c(O)c(OC)c(C)c(OC(C)=O)c54)N3[C@@H](O)[C@@H](C2)N1C
### Response 2.5

---

This listing pairs compounds with measured CV-1 IC50.
# Tested on: CV-1 = monkey kidney cells
# Method: Cytotoxicity against CV-1 cells
# Type: cell-based
// units = µg/mL; emit number, no label

Use the examples below as a reference point.
[
  {
    "Compound": "COc1cc2c(cc1O)CCN[C@]21C[S+]([O-])[C@@H]2c3c(OC(C)=O)c(C)c4c(c3[C@H](COC1=O)N1[C@H]2[C@H]2c3c(cc(C)c(OC)c3O)C[C@@H]([C@H]1O)N2C)OCO4 (stereo partly drawn) [Et 759B]",
    "Measurement type": "CV-1 IC50",
    "Val": 0.025
  },
  {
    "Compound": "COc1cc2c(cc1O)CCNC21CSC2c3c(OC(C)=O)c(C)c4c(c3C(COC1=O)N1C(C(C=O)C=O)C3Cc5cc(C)c(OC)c(O)c5C(C21)N3C)OCO4 (stereo not drawn)",
    "Measurement type": "CV-1 IC50",
    "Val": 0.005
  },
  {
    "Compound": "COc1cc2c(cc1O)CCN[C@]21CS[C@@H]2c3c(OC(C)=O)c(C)c4c(c3[C@H](COC1=O)N1[C@@H]2[C@H]2c3c(cc(C)c(OC)c3O)C[C@@H]([C@@H]1O)N2C)OCO4",
    "Measurement type": "CV-1 IC50",
    "Val": 0.001
  },
  {
    "Compound": "COc1cc2c(cc1O)CCN[C@]21CS[C@@H]2c3c(OC(C)=O)c(C)c4c(c3[C@H](COC1=O)N1C[C@@H]3Cc5cc(C)c(OC)c(O)c5[C@H]([C@H]21)N3C)OCO4",
    "Measurement type": "CV-1 IC50",
    "Val": 0.05
  },
  {
    "Compound": "COc1c(C)cc2c(c1O)C1C3[C@@H]4SCC(=O)C(=O)OC[C@@H](c5c6c(c(C)c(OC(C)=O)c54)OCO6)N3[C@@H](O)[C@H](C2)N1C (stereo partly drawn)",
    "Measurement type": "CV-1 IC50",
    "Val": 0.025
  }
]

Could you now look at the following compound, please?
### Prompt Need CV-1 IC50, item COc1c(C)cc2c(c1O)[C@H]1N[C@@H](C2)[C@H](O)N2[C@H]1[C@@H]1SC[C@]3(NCCc4c3[nH]c3ccccc43)C(=O)OC[C@H]2c2c3c(c(C)c(OC(C)=O)c21)OCO3
### Response 0.005
